meta.source: patent US20220298138A1

Below, each entry is listed with its recorded pIC50.
- TESTED_SYSTEM: Human Factor XIIa (Homo sapiens)
- Construct: purchased Enzyme Research Laboratories
- Sequence (P00748 373-615 limits assumed): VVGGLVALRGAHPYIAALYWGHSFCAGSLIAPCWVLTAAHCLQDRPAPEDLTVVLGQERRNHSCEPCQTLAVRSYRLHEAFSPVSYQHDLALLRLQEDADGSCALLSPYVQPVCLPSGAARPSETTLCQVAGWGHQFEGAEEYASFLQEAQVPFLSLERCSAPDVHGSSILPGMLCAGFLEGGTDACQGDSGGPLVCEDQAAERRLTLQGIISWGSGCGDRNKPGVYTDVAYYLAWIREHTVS
- METHOD_NOTES: Factor XIIa inhibitory activity in vitro (fluorogenic substrate H-DPro-Phe-Arg-AFC)
- Assay type: biochemical
- CONDITION_PARAMETERS: 25° C., class symbols, read-out: Human FXIIa IC50
pIC50: −log10 of the molar value.
METRIC_NAME: pIC50

>>> result("CN1CCN(c2cccc(C(=O)N[C@@H](Cc3ccc(F)c(F)c3)C(=O)NCc3ccc4c(N)nccc4c3)c2)CC1")
"5.00 to 5.52"
>>> result("CC(C)N[C@H](CCCCN1CCCCC1)C(=O)N[C@@H](Cc1c[nH]c2ccccc12)C(=O)NCc1ccc2c(N)nccc2c1")
"7.00 to 7.52"
>>> result("Nc1nccc2cc(CNC(=O)[C@@H]3CCCCN3C(=O)[C@H](N)CCc3ccccc3)ccc12")
"5.52 to 6.00"
>>> result("CC(NC(=O)[C@H](N)CCc1ccccc1)C(=O)NCc1ccc2ccnc(N)c2c1 (stereo partly shown)")
"4.40 to 5.00"
